System: HCC-2998 colon
Test: NCI-60 one-dose screen, 48 h
Settings: 10 µM unless noted
About 83,000 compounds went through this panel and 20% of them were active in at least one assay; those are over-represented in the sample as a whole. Calls of active or inactive are those of the source. Rule for the calls: active = growth percent below 10; inactive = the rest.
Outcome codes: active, inactive

Molecule: O=C(O)c1cn(C2CC2)c2cc(N3CCN(C(=O)N/N=C/c4ccccc4)CC3)c(F)cc2c1=O
Cat: inactive
--
Molecule: Cc1ccc(-c2nc(C#N)c(S(=O)(=O)NCCO)o2)cc1
Cat: inactive
--
Molecule: O=C(CSc1nnc2sc(Nc3cccc(Cl)c3)nn12)c1ccc(F)cc1
Cat: inactive
--
Molecule: Cn1c(O)c(C(/C=C/c2ccccc2)=Nc2ccccc2N)c(=O)n(C)c1=O
Cat: inactive
--
Molecule: N=c1sc(Cc2cc(Cl)ccc2Cl)cn1CC(=O)c1ccccc1
Cat: inactive
--
Molecule: CCOC(=O)C(=Cc1cccc(C#N)c1)C(=O)OCC
Cat: inactive
--
Molecule: COc1cc(-c2nc3occn3c2-c2ccnc(NCCCNS(=O)(=O)c3ccccc3)n2)ccc1F
Cat: inactive
--
Molecule: Cc1ccc(/C=C(\C#N)C(=O)Nc2ncc(Cc3cc(Cl)ccc3Cl)s2)o1
Cat: inactive
--
Molecule: COc1ccc2nc(Cl)c(/C=C/C(=O)c3ccc(NC(=O)CSc4nnc(-c5ccc(Cl)c(Cl)c5)n4-c4ccccc4)cc3)cc2c1
Cat: inactive
--
Molecule: O=C(/C=C\c1ccco1)/C=C/c1ccco1
Cat: inactive
--
Molecule: CCN1C(=O)N(CC)C2C1NN=c1s/c(=C3\C(=O)N(CCc4ccccc4)c4ccccc43)c(=O)n12 (stereo not given)
Cat: inactive
--
Molecule: COC(c1ccc2ccccc2c1)C(C)C(F)F (stereo not given)
Cat: inactive
--
Molecule: COc1ccc(-c2cc(-c3ccc(OC)cc3)nc(NCCCNc3ccnc4cc(Cl)ccc34)n2)cc1
Cat: active
--
Molecule: O=C(CSc1nc2ccc([N+](=O)[O-])cc2[nH]1)Nc1ccc(Br)cc1
Cat: inactive
--
Molecule: Cc1ccc(C(=O)c2ccc(CC(=O)N/N=C/c3ccc(O)cc3O)n2C)cc1
Cat: inactive
--
Molecule: COc1cc(/C=C2\CN(S(=O)(=O)c3ccc(C)cc3)C/C(=C\c3cc(CN4CCCCC4)c(O)c(OC)c3)C2=O)cc(CN2CCCCC2)c1O
Cat: active
--
Molecule: CN(C)c1ccc(/C=C/C(=O)c2ccccc2)cc1
Cat: inactive
--
Molecule: O=C1NC(=O)c2c1c1c3ccccc3[nH]c1c1oc3ccc(F)cc3c21
Cat: inactive
--
Molecule: N#CC(C#N)N=Nc1ccc(Cl)cc1Cl
Cat: inactive
--
Molecule: Cc1c(N2CN3C[C@H](C)N4CN(c5c(C)n(C)n(-c6ccccc6)c5=O)CN5C[C@@H](C)N(C2)C3C54)c(=O)n(-c2ccccc2)n1C (stereo not given in full)
Cat: inactive

* * *

Test system: NCI-H322M lung
Assay: NCI-60 one-dose screen, 48 h (100 = growth as untreated, 0 = no growth, -100 = all killed)
Details: 10 µM unless noted
Compounds without any hit were thinned out: in the full panel of roughly 83,000, 20% have a hit.

Compound: C[C@H]1[C@H](C)CC[C@]2(C(=O)O)CC[C@]3(C)C(=CC[C@@H]4[C@@]5(C)C[C@@H](Cc6cn([C@@H]7O[C@H](CO)[C@@H](O)[C@H](O)[C@H]7O)nn6)[C@H](O)C(C)(C)[C@@H]5CC[C@]43C)[C@H]12
Test Target: NCI-H322M lung
growth (%): 102

Compound: CCOC(=O)c1c(NC(=O)c2ccc(C(C)(C)C)cc2)sc2cc(O)ccc12
Test Target: NCI-H322M lung
growth (%): 87.1

Compound: Cn1cc(-c2ccc3cc(-c4ccc(CC(=O)Nc5cc(C(C)(C)C)on5)cc4)cnc3c2)cn1
Test Target: NCI-H322M lung
growth (%): 16.5

Compound: COc1ccc(C2C3=C(COC3=O)N(CCO)c3cc4c(cc32)OCCO4)cc1OC (stereo not drawn)
Test Target: NCI-H322M lung
growth (%): 51.4

Compound: CCOC(=O)N1CCN(S(=O)(=O)c2oc(-c3ccc(Cl)cc3)nc2C#N)CC1
Test Target: NCI-H322M lung
growth (%): 99.3

Compound: O=C1/C(=C/c2ccc(C(F)(F)F)cc2)COc2ccc(O)c(O)c21
Test Target: NCI-H322M lung
growth (%): 50.2

Compound: Cc1ccc2[nH]c(-c3ccc(S(C)(=O)=O)cc3)c(/C=N/N=C(N)N)c2c1
Test Target: NCI-H322M lung
growth (%): 79

Compound: CCCCCCOC(=O)CC1=C(C)/C(=C/c2[nH]c(-c3ccc[nH]3)cc2OC)N=C1C
Test Target: NCI-H322M lung
growth (%): 11.2

Compound: Cn1cc(C(=O)c2nc(-c3c[nH]c4ccc(Br)cc34)no2)c2cc(Br)ccc21
Test Target: NCI-H322M lung
growth (%): 73.4

Compound: CCCC(O)Cn1ncc(C(=O)OCC)c1NC(=O)NCc1cccc(F)c1 (stereo not drawn)
Test Target: NCI-H322M lung
growth (%): 93

Compound: C=C1C(=O)O[C@H]2[C@H]1CC/C(COC(=O)NCc1ccc(Cn3c(=O)sn(-c4ccc(OC)cc4)c3=O)cc1)=C\CC[C@@]1(C)O[C@@H]21
Test Target: NCI-H322M lung
growth (%): 97.7

Compound: Cc1cccc(N2CCN(C(=S)c3ccc4c(c3)OCO4)CC2)c1
Test Target: NCI-H322M lung
growth (%): 33.2

Compound: Cn1cc(-c2nn3cc(-c4ccccc4)nc3s2)c2ccccc21
Test Target: NCI-H322M lung
growth (%): 71

Compound: COc1ccc2cc(-c3ccc(-c4ccc(C(=N)N)s4)s3)ccc2c1
Test Target: NCI-H322M lung
growth (%): 22.6

Compound: CN1CCN(Cc2ccc(NC(=O)c3cncc(C#Cc4cncc5ncccc45)c3)cc2C(F)(F)F)CC1
Test Target: NCI-H322M lung
growth (%): 18

Compound: CN1C(=O)N(C)C2C1NC(=S)N2/N=C/C=C/c1ccccc1[N+](=O)[O-] (stereo not drawn)
Test Target: NCI-H322M lung
growth (%): 49.3

Compound: N#Cc1c(-c2ccccc2)cc(-c2ccccc2)n(CCCC(=O)NO)c1=O
Test Target: NCI-H322M lung
growth (%): 35.3

Compound: NS(=O)(=O)c1ccc(N/C=C/C(=O)c2cc3ccccc3oc2=O)cc1
Test Target: NCI-H322M lung
growth (%): 92.9
